- STUDY TARGET: HSC70-NBD (Homo sapiens)
- Construct: made in house
- Sequence (P11142 2-386 limits assumed): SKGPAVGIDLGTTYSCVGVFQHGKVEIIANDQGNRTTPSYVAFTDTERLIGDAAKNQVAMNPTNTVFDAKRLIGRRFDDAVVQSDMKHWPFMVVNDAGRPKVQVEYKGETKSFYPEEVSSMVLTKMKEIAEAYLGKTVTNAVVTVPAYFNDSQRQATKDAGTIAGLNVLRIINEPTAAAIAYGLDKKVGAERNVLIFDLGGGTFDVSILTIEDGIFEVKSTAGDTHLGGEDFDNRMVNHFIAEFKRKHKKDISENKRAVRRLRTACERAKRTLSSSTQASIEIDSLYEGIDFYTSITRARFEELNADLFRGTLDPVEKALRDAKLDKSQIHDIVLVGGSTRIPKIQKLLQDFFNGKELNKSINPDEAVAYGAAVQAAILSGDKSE
- PROTOCOL SUMMARY: SPR binding to wild-type HSC70-NBD
- SETTINGS: mean (±SD), n = 3 unless marked n = 2; read-out: HSC70-NBD SPR KD
ENDPOINT: Kd (µM)

COc1cccc(-c2cc(CNC(=O)c3c(C)oc4c3C(=O)CCC4)on2)c1    99
c1ccc(-c2ccc(Cn3nnnc3N3CCCC(c4ncc[nH]4)C3)cc2)cc1 (centres unmarked)    13

(A) CNc1nc(C)cc(-c2cccc(C(=O)NCCc3ccc(C)o3)c2)n1
(B) CC(C)(O)C#Cc1cccc(C(=O)NCc2ccc(-n3cncn3)cc2)c1
Q: Which of these two has the smaller recorded Kd: A or B ? Your answer should be the label of the entry you select.
Result: A
